Molecular target: Cyclin-dependent kinase 5 (Homo sapiens);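 further: mean value of inhibition, with the enzyme tested as CDK5/p35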
Details: at 1 µM
experimental_endpoint: inhibition (%)
Numbers only, in %.

Record excerpt, results attached:
- COc1ccc(-c2nn3ncccc3c2-c2ccnc(Nc3ccc(Cl)c(C(F)(F)F)c3)n2)cc1: 0.19
- Fc1cccc(COc2ccc(Nc3ncnc4cc(-c5ccc[nH]5)sc34)cc2Cl)c1: -0.09
- c1cnn2ncc(-c3ccnc(Nc4ccc5c(c4)OCCO5)n3)c2c1: 90.4
- Cc1ccc(NC(=O)c2ccnc(N3CCCC3)c2)cc1-c1ccc(C(=O)NCC2CC2)cc1: 3.21
- CC1=C(C(=O)Nc2ccc3[nH]ncc3c2)C(c2ccc3ccccc3c2)CC(=O)N1 (stereo not given): 3.42
- CC(=O)Nc1cccc(C#Cc2cncnc2Nc2ccc(OCc3cccc(F)c3)c(Cl)c2)n1: 1.19

Batch request: inhibition for each of the following compounds.
1. CN(C)c1cc2c(Nc3ccc4nc(Cc5ccccc5)[nH]c4c3)ncnc2cn1
2. COC(=O)Nc1nc2cc(Oc3ccc(NC(=O)Nc4cccc(C(=O)O)c4)cc3)ccc2[nH]1
3. COc1ccc(-c2coc3ncnc(N)c23)cc1
4. Cc1cccc(-c2n[nH]cc2-c2ccc3ncccc3n2)n1

**Result**
1.2
-0.58
3.84
0.38

====

Can you tell me inhibition for the items I'm about to list?
Test system: Epidermal growth factor receptor (Homo sapiens), P00533 [L861Q]
Sequence (P00533 whole entry L861Q): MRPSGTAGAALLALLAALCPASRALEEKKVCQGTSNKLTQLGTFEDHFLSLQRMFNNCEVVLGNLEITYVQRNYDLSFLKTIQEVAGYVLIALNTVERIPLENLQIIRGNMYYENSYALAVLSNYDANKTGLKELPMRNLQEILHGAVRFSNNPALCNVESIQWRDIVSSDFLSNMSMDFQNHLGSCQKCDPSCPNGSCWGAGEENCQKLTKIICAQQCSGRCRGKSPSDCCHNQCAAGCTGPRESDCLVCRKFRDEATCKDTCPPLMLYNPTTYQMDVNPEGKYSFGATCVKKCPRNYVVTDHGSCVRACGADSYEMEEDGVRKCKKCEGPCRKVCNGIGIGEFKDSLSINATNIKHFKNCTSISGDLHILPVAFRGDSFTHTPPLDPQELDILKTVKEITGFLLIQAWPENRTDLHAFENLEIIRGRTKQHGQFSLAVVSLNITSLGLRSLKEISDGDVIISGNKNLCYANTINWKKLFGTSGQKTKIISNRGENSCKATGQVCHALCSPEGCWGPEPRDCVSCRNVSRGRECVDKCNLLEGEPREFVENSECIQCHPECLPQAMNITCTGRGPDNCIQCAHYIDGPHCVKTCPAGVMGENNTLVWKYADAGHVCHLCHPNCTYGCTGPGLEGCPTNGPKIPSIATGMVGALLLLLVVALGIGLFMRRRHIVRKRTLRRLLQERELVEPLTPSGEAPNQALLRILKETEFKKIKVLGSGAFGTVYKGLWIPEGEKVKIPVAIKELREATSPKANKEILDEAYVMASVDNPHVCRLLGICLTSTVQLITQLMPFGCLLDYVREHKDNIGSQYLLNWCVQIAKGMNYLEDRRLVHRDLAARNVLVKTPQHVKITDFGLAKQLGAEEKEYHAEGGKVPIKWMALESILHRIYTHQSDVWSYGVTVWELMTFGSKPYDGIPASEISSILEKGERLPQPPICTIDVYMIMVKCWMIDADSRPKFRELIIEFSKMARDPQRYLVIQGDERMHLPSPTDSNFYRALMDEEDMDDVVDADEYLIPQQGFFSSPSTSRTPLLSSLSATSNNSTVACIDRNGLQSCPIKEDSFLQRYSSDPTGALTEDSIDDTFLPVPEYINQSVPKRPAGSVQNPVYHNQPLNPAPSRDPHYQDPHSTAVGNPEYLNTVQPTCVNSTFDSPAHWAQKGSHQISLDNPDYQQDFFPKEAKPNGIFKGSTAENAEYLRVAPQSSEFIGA
Settings: at 1 µM
Numbers only, in %.

- CC(=O)Nc1cccc(C#Cc2cncnc2Nc2ccc(OCc3cccc(F)c3)c(Cl)c2)n1: 55.6
- [O-][S+]1CCN(Cc2ccc(-c3ccc4ncnc(Nc5ccc(OCc6ccccc6)c(F)c5)c4c3)o2)CC1: 68.6
- CS(=O)(=O)CCN(CC#N)Cc1ccc(-c2ccc3ncnc(Nc4ccc(OCc5cccc(F)c5)c(Cl)c4)c3c2)o1: 76.2

Batch request: inhibition for each of the following molecules.
1. Cc1nn(C)c2cc(N(C)c3ccnc(Nc4cccc(S(N)(=O)=O)c4)n3)ccc12
2. Nc1ncnc2occ(-c3ccc(NC(=O)Nc4cc(C(F)(F)F)cc(C(F)(F)F)c4)cc3)c12
3. CC1=C(C(=O)Nc2ccc3[nH]ncc3c2)C(c2ccc3ccccc3c2)CC(=O)N1 (centres undefined)

**Result**
[9.38, -2.09, 1.33]

Batch request: inhibition for each of the following molecules.
1. CN1CCC(C(=O)Nc2n[nH]c3nnc(-c4ccccc4)cc23)CC1
2. NS(=O)(=O)c1cccc(-c2ccc3c(NC(=O)C4CC4)n[nH]c3c2)c1
3. CCCN1CCC=C(c2ccc(Nc3nc(Nc4ccccc4C(N)=O)c4cc[nH]c4n3)c(C)c2)C1

**Result**
6.37
-0.49
6.61

====

Biological target: Serine/threonine-protein kinase MRCK beta (Homo sapiens);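 further: values are mean percent inhibition of MRCKB, screened as part of the GSK PKIS kinase inhibitor set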
Settings: at 0.1 µM
experimental_endpoint: inhibition (%)
One number for each entry, in %.

• Cc1nn(C)c2cc(N(C)c3ccnc(Nc4cccc(S(N)(=O)=O)c4)n3)ccc12 = 1.01

Batch request: inhibition for each of the following compounds.
1. COc1cc2ncn(-c3cc(OCc4ccccc4Cl)c(C(N)=O)s3)c2cc1OC
2. CC1=C(C(=O)Nc2ccc3[nH]ncc3c2)C(c2ccc(F)cc2)NC(=O)N1 (stereo not given)
3. Fc1cccc(COc2ccc(Nc3ncnc4cc(-c5ccc[nH]5)sc34)cc2Cl)c1

**Result**
0.86
5.57
0.61

====

Target: Casein kinase I isoform alpha (Homo sapiens);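 further: each value is a mean percent inhibition of the kinase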
Conditions: at 1 µM
experimental_endpoint: inhibition (%)
One number for each entry, in %.

Record excerpt, results attached:
- CS(=O)(=O)CCNCc1ccc(-c2ccc3ncnc(Nc4ccc(OCc5ccccc5)c(Cl)c4)c3c2)o1: 0.15
- CCCN1CCC=C(c2ccc(Nc3nc(Nc4ccccc4C(N)=O)c4cc[nH]c4n3)c(C)c2)C1: 47.6
- COc1cc(C)c(NC(=O)CN(C)C)cc1Nc1nc(Nc2cccc(F)c2C(N)=O)c2cc[nH]c2n1: 21.5
- CN1CCC(C(=O)Nc2n[nH]c3nnc(-c4ccccc4)cc23)CC1: 4
- CCn1c(-c2nonc2N)nc2c(C#CC(C)(C)O)nc(CN3CCCC3)cc21: -0.92
- CC1=C(C(=O)Nc2ccc3[nH]ncc3c2)C(c2ccc3ccccc3c2)CC(=O)N1 (stereo not given): 3.29
- O=C1Nc2ccc(C(=O)c3ccco3)cc2C1=Cc1cc(Cl)c(O)c(Cl)c1: 5.16
- Fc1cccc(COc2ccc(Nc3ncnc4sc(-c5cccs5)cc34)cc2Cl)c1: 2.33
- COc1ccc(-c2coc3ncnc(N)c23)cc1: 4.04
- NS(=O)(=O)c1cccc(-c2ccc3c(NC(=O)C4CC4)n[nH]c3c2)c1: 4.53

Batch request: inhibition for each of the following molecules.
1. COc1cc(C=NNc2ncnc3c2cnn3-c2ccccc2)ccc1O
2. CCc1cccc(NC(=O)Nc2ccc(Oc3ccc4nc(NC(=O)OC)[nH]c4c3)cc2)c1
3. NC(=O)c1cccc(Nc2nccc(Nc3cccc4[nH]ncc34)n2)c1
4. [O-][S+]1CCN(Cc2ccc(-c3ccc4ncnc(Nc5ccc(OCc6ccccc6)c(F)c5)c4c3)o2)CC1
5. O=C1NC(=O)C(c2ccc(Cl)cc2)=C1Nc1ccc(Cl)c(C(=O)O)c1

**Result**
6.98
0.76
1.87
4.39
-1.03

Batch request: inhibition for each of the following molecules.
1. Cc1ccc(NC(=O)c2ccnc(N3CCCC3)c2)cc1-c1ccc(C(=O)NCC2CC2)cc1
2. CNC(=O)c1cncc(/C=C/c2c(Cl)cccc2Cl)c1
3. Nc1nc(-c2ccccn2)c(-c2ccc3ncccc3n2)s1
4. CC(=O)Nc1cccc(C#Cc2cncnc2Nc2ccc(OCc3cccc(F)c3)c(Cl)c2)n1

**Result**
[2.01, 6.99, 6.1, -1.03]

The value of inhibition measured for the molecule "Cc1nn(C)c2cc(N(C)c3ccnc(Nc4cccc(S(N)(=O)=O)c4)n3)ccc12" turned out to be 0.72

====

Biological target: Serine/threonine-protein kinase PAK 6 (Homo sapiens) (UniProt Q9NQU5);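 further: mean PAK6 inhibition reported from the GSK PKIS screen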
Sequence (Q9NQU5 whole entry, looked up): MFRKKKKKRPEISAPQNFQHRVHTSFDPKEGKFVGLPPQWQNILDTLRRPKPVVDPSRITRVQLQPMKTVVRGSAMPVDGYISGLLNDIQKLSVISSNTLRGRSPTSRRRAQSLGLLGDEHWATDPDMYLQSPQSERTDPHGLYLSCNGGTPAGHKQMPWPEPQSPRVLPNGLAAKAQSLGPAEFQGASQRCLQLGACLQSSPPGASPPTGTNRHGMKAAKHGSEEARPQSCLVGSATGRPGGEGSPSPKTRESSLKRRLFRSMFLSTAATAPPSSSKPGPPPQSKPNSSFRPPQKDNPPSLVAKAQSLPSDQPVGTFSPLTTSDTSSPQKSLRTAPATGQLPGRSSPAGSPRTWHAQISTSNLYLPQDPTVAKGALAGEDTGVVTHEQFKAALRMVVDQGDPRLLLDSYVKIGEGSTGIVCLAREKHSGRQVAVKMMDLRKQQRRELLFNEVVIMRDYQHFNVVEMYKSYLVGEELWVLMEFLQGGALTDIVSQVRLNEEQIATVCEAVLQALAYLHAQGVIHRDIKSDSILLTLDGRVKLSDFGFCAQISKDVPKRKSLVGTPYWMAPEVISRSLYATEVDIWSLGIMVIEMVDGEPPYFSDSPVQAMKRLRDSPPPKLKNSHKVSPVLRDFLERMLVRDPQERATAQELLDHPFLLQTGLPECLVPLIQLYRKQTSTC
Conditions: at 0.1 µM
experimental_endpoint: inhibition (%)
Answers are plain numbers, in %.

Record excerpt, results attached:
* COc1ccc2cc(-c3c(-c4ccncc4)nc(-c4ccc([S+](C)[O-])cc4)n3C)ccc2c1 (stereo not given) | -2.25
* CCn1c(-c2nonc2N)nc2c(C#CC(C)(C)O)nc(CN3CCCC3)cc21 | 10.8
* COc1ccc(-c2nn3ncccc3c2-c2ccnc(Nc3ccc(Cl)c(C(F)(F)F)c3)n2)cc1 | -0.34
* Cc1cccc(-c2n[nH]cc2-c2ccc3ncccc3n2)n1 | -5.68
* CCCN1CCC(Oc2cc(Nc3nc(Nc4cccc(F)c4C(N)=O)c4cc[nH]c4n3)c(OC)cc2Cl)CC1 | 2.36

Batch request: inhibition for each of the following compounds.
1. CCn1c(-c2nonc2N)nc2c(C#CC(C)(C)O)nc(OC[C@@H](N)c3ccccc3)cc21
2. O=C(Nc1n[nH]c2nc(-c3ccco3)c(Br)cc12)C1CC1
3. NC(=O)c1cccc(Nc2nccc(Nc3cccc4[nH]ncc34)n2)c1
4. O=C1Nc2ccc(C(=O)c3ccco3)cc2C1=Cc1cc(Cl)c(O)c(Cl)c1
5. CCn1c(-c2nonc2N)nc2cncc(C(=O)N3CCNCC3)c21

**Result**
[90.8, 0.11, 3.11, 1.03, -5.05]

====

Biological target: cAMP-dependent protein kinase catalytic subunit PRKX (Homo sapiens) (UniProt P51817);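 further: values are mean percent inhibition of PRKX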
Sequence (whole entry): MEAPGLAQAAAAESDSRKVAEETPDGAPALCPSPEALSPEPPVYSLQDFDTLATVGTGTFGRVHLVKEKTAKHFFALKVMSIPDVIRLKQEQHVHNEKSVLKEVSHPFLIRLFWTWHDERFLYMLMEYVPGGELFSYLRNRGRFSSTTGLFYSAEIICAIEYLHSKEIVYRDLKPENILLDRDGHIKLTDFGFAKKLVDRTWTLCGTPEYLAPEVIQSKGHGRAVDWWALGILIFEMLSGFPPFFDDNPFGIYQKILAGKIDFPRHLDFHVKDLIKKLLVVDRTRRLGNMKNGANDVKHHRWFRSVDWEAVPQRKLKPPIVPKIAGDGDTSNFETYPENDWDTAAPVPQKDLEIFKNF
Details: at 0.1 µM
experimental_endpoint: inhibition (%)
Answers are plain numbers, in %.

Batch request: inhibition for each of the following compounds.
1. CS(=O)(=O)CCN(CC#N)Cc1ccc(-c2ccc3ncnc(Nc4ccc(OCc5cccc(F)c5)c(Cl)c4)c3c2)o1
2. Cc1ccc(C(=O)NC2CCCCC2)cc1-c1ccc(C(=O)NCC2CC2)cc1
3. Nc1ncnc2occ(-c3ccc(NC(=O)Nc4cccc(C(F)(F)F)c4)cc3)c12
4. COc1cc(C)c(NC(=O)CN(C)C)cc1Nc1nc(Nc2cccc(F)c2C(N)=O)c2cc[nH]c2n1
5. COC(=O)Nc1nc2cc(Oc3cccc(NC(=O)Nc4cc(C(F)(F)F)ccc4F)c3)ccc2[nH]1

**Result**
1: 1.58; 2: 2.1; 3: 1.94; 4: -0.65; 5: 0.81
